- PROTOCOL SUMMARY: Cmax in beagle dog at 2 mg/kg, po administered via gavage by LC-MS/MS analysis
- Format: ADME, organism-based, Canis lupus familiaris
- Set-up: dose 2 mg/kg, route oral
- RUN PARAMETERS: in vivo
MEASUREMENT NAME: Cmax (µM)
Give a bare numeral; the unit µM is implied.

Reported Cmax, compound CS(=O)(=O)n1cc2c(n1)CN([C@H]1CO[C@H](c3cc(F)ccc3F)[C@@H](N)C1)C2.O=C(O)C(F)(F)F : ____ 5.9

---

- PROTOCOL SUMMARY: Cmax in Sprague-Dawley rat at 2 mg/kg, po administered via gavage by LC-MS/MS analysis
- Format: ADME, organism-based
- Design: dose 2 mg/kg, route oral
- RUN PARAMETERS: in vivo
MEASUREMENT NAME: Cmax (µM)
Give a bare numeral; the unit µM is implied.

Reported Cmax, compound CS(=O)(=O)n1cc2c(n1)CN([C@H]1CO[C@H](c3cc(F)ccc3F)[C@@H](N)C1)C2.O=C(O)C(F)(F)F : ____ 9

---

- PROTOCOL SUMMARY: Ratio of drug level in brain to plasma in human
MEASUREMENT NAME: Kp

Reported Kp, compound CS(=O)(=O)n1cc2c(n1)CN([C@H]1CO[C@H](c3cc(F)ccc3F)[C@@H](N)C1)C2 : ____ 0.6

---

- PROTOCOL SUMMARY: Unbound fraction in CD-1 mouse plasma at 1 to 100 uM
- Assay type: ADME, cell-free
MEASUREMENT NAME: fraction unbound at up to 100 µM
Returns: the value as a bare number; no unit string appended.

Reported fraction unbound at up to 100 µM, molecule CS(=O)(=O)n1cc2c(n1)CN([C@H]1CO[C@H](c3cc(F)ccc3F)[C@@H](N)C1)C2 : ____ 0.38

---

- PROTOCOL SUMMARY: AUC (0 to 24 hrs) in rat at 100 mg/kg/day, po administered for 14 days
- Type: ADME, organism-based
- Design: dose 100 mg/kg/day, time < 24 hr, route oral
- RUN PARAMETERS: plasma
MEASUREMENT NAME: AUC at 24 h
The answer consists of two parts: a number and, after it, its unit.

Reported AUC at 24 h, compound CS(=O)(=O)n1cc2c(n1)CN([C@H]1CO[C@H](c3cc(F)ccc3F)[C@@H](N)C1)C2 : ____ 5000 µM·h

---

- PROTOCOL SUMMARY: in vivo
- RUN PARAMETERS: beagle, dog, po, 2 mg/kg
MEASUREMENT NAME: bioavailability (%)
Give a bare numeral; the unit % is implied.

Reported bioavailability, compound CS(=O)(=O)n1cc2c(n1)CN([C@H]1CO[C@H](c3cc(F)ccc3F)[C@@H](N)C1)C2.O=C(O)C(F)(F)F : ____ 100

---

- PROTOCOL SUMMARY: Plasma clearance in Sprague-Dawley rat at 1 mg/kg, iv and 2 mg/kg, po administered via gavage by LC-MS/MS analysis
- Assay type: ADME, organism-based
MEASUREMENT NAME: clearance (mL/min/kg)
Give a bare numeral; the unit mL/min/kg is implied.

Reported clearance, molecule CS(=O)(=O)n1cc2c(n1)CN([C@H]1CO[C@H](c3cc(F)ccc3F)[C@@H](N)C1)C2.O=C(O)C(F)(F)F : ____ 1.1

---

- PROTOCOL SUMMARY: Tmax in rat at 100 mg/kg/day, po administered for 14 days
- Format: ADME, organism-based
- Set-up: route oral
- RUN PARAMETERS: in vivo
MEASUREMENT NAME: Tmax (h)
Give a bare numeral; the unit h is implied.

Reported Tmax, compound CS(=O)(=O)n1cc2c(n1)CN([C@H]1CO[C@H](c3cc(F)ccc3F)[C@@H](N)C1)C2 : ____ 2

---

- ASSAY TARGET: Prolyl endopeptidase FAP (Homo sapiens)
- Sequence (Q12884 whole entry): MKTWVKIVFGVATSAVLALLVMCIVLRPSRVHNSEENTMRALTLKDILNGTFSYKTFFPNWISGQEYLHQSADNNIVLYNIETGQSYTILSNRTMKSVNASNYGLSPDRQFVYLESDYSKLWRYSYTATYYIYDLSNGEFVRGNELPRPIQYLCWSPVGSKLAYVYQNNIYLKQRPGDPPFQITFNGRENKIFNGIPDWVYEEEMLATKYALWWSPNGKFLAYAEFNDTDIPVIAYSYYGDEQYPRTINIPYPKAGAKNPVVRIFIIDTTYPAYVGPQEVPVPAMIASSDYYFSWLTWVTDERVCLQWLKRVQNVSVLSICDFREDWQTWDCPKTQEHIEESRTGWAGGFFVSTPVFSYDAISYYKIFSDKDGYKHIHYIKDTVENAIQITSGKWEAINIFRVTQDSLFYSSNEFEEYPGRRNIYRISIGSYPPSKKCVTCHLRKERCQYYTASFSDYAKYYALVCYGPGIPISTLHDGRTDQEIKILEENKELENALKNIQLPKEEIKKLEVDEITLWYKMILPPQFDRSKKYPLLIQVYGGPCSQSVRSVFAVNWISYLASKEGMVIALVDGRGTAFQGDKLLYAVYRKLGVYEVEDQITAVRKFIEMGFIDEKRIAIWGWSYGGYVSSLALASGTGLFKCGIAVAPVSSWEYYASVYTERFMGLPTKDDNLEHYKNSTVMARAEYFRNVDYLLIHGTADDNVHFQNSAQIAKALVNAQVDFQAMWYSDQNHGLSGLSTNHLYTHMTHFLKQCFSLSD
pIC50: −log10 of the molar value.
MEASUREMENT NAME: pIC50

Hello, I am looking for reported pIC50 with Prolyl endopeptidase FAP (Homo sapiens) for CS(=O)(=O)n1cc2c(n1)CN([C@H]1CO[C@H](c3cc(F)ccc3F)[C@@H](N)C1)C2 . Could you help? < 4.17

---

- PROTOCOL SUMMARY: Cmax in rat at 100 mg/kg/day, po administered for 14 days
- Type: ADME, organism-based
- Set-up: dose 100 mg/kg/day, route oral
- RUN PARAMETERS: in vivo
MEASUREMENT NAME: Cmax

Reported Cmax, compound CS(=O)(=O)n1cc2c(n1)CN([C@H]1CO[C@H](c3cc(F)ccc3F)[C@@H](N)C1)C2 : ____ 371 µM

---

MEASUREMENT NAME: IC50

Hello, I am looking for reported IC50 with UniProt:Q9UHL4 for CS(=O)(=O)n1cc2c(n1)CN([C@H]1CO[C@H](c3cc(F)ccc3F)[C@@H](N)C1)C2 [OMARIGLIPTIN] . Could you help? > 67 µM

---

- PROTOCOL SUMMARY: Tmax in beagle dog at 1 mg/kg, iv and 2 mg/kg, po administered via gavage by LC-MS/MS analysis
- Assay type: ADME, organism-based, Canis lupus familiaris
- RUN PARAMETERS: in vivo
MEASUREMENT NAME: Tmax (h)
Give a bare numeral; the unit h is implied.

Reported Tmax, molecule CS(=O)(=O)n1cc2c(n1)CN([C@H]1CO[C@H](c3cc(F)ccc3F)[C@@H](N)C1)C2.O=C(O)C(F)(F)F : ____ 1.3

---

- PROTOCOL SUMMARY: Ratio of drug level in brain to plasma in CD-1 mouse
MEASUREMENT NAME: Kp
Returns: the value as a bare number; no unit string appended.

Reported Kp, molecule CS(=O)(=O)n1cc2c(n1)CN([C@H]1CO[C@H](c3cc(F)ccc3F)[C@@H](N)C1)C2 : ____ 0.6

---

- PROTOCOL SUMMARY: Terminal half life in Sprague-Dawley rat at 1 mg/kg, iv and 2 mg/kg, po administered via gavage by LC-MS/MS analysis
- Assay type: ADME, organism-based
- RUN PARAMETERS: in vivo, read-out: beta t1/2 (converted)
MEASUREMENT NAME: half-life (h)
Give a bare numeral; the unit h is implied.

Reported half-life, compound CS(=O)(=O)n1cc2c(n1)CN([C@H]1CO[C@H](c3cc(F)ccc3F)[C@@H](N)C1)C2.O=C(O)C(F)(F)F : ____ 11

---

- ASSAY TARGET: Prolyl endopeptidase (Homo sapiens, UniProt P48147)
- Sequence (P48147 whole entry): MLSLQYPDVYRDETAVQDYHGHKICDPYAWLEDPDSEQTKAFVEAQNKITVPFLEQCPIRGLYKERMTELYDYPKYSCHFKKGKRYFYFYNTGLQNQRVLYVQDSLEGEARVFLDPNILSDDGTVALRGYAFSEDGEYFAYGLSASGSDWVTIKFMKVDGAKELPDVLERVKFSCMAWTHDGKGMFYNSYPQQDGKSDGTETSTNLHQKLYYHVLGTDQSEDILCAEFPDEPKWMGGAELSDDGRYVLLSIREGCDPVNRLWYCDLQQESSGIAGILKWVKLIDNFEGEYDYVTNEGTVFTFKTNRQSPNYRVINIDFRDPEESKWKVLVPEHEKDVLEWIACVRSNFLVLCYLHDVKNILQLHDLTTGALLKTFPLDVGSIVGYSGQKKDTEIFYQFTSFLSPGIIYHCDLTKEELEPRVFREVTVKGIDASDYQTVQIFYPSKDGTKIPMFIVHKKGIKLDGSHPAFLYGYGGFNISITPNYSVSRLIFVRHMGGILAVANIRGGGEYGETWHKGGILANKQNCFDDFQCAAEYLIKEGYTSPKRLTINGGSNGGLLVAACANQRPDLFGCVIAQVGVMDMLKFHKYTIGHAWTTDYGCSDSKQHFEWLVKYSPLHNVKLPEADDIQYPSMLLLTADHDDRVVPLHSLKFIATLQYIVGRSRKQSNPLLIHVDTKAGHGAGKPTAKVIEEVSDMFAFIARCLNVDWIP
MEASUREMENT NAME: IC50

Reported IC50, compound CS(=O)(=O)n1cc2c(n1)CN([C@H]1CO[C@H](c3cc(F)ccc3F)[C@@H](N)C1)C2 : ____ > 67 µM

Numbers sourced from ChEMBL document CHEMBL3232717.
